# Test system: HL-60
# Assay Notes: Cytoprotection against human HL60 cells assessed as inhibition of H2O2-induced cell death pretreated for 1 hr followed by H2O2 stimulation measured after 3 hrs by p-iodonitrotetrazolium violet dye based LDH assay
# Assay type: functional
Task for the reader: assign each of the following compounds its reported IC50.
One number for each entry, in nM.

CN1C(=O)C(NCc2ccccc2)=C(c2cn(C)c3ccccc23)C1=O | 330

Provide IC50 values for the following items, in order.
1. CCCCCCCCCCCCCN1C(=O)C(NCCC)=C(c2cn(C)c3ccccc23)C1=O
2. CN1C(=O)C(NCc2ccncc2)=C(c2cn(C)c3ccccc23)C1=O
3. CN1C(=O)C(N)=C(c2cn(C)c3ccccc23)C1=O

[400, 1200, 4500]

Provide IC50 values for the following items, in order.
1. CN1C(=O)C(NC(C)(C)C)=C(c2cn(C)c3ccccc23)C1=O
2. CCCNC1=C(c2cn(C)c3ccccc23)C(=O)N(C2CCCC2)C1=O
3. CN1C(=O)C(NCc2cccc(Cl)c2)=C(c2cn(C)c3ccccc23)C1=O
4. CCCCCN1C(=O)C(NCCC)=C(c2cn(C)c3ccccc23)C1=O
5. CC(C)NC1=C(c2cn(C)c3ccccc23)C(=O)N(C)C1=O
6. C[C@H](NC1=C(c2cn(C)c3ccccc23)C(=O)N(C)C1=O)c1ccccc1

1. 880
2. 280
3. 280
4. 320
5. 480
6. 510
